# ASSAY REMARKS: thallium flux activation in parental CHO cells, counter-screen for KCNQ1 potentiator project (AID 493006);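 as to activation: fluorescence ratio of max minus min over baseline after K+ and Tl+ depolarization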
# PARTICULARS: parental CHO-K1 cells, FluxOR thallium flux, at 10 µM
The source made the active and inactive calls.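 The calls were made as follows: active = duplicate-averaged activation above buffer control mean plus 5 SD of those controls; inactive = the rest.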
Classes used: active, inactive

{"columns": ["COMPOUND", "CLASS NAME"],
 "data": [
  ["CCCCCCCCCCC[N+](C)(C)CC/C=C1/c2ccccc2Sc2ccc(Cl)cc21", "active"],
  ["CCc1ccc(NC(=O)CSc2nc3ccsc3c(=O)n2CCC(=O)O)cc1", "active"],
  ["Cc1ccc(C(=O)NC(=S)N(C)Cc2ccccc2)cc1", "active"],
  ["COc1cccc(-c2nnc(Nc3nc4c(F)cccc4s3)o2)c1", "active"],
  ["CCCCCCCN1N=C(C)C(C(=O)c2ccccc2)C1=O (stereo unspecified)", "inactive"],
  ["O=C(NC(=S)Nc1ccc(Br)cn1)c1cccs1", "inactive"],
  ["Cc1cc(C)n(/N=C/c2cc(Cl)cc(Cl)c2O)c(=O)c1", "inactive"],
  ["Cc1nc(NC(=S)NC(=O)c2cccs2)ccc1Br", "active"],
  ["O=C(Nc1nnc(C2=COCCO2)o1)c1ccc(Br)cc1", "active"],
  ["CCC1(c2ccccc2)NC(=S)N(c2ccc(C)c(C)c2)N1 (stereo unspecified)", "active"],
  ["O=C(NC(=S)N1CCN(c2ccccc2)CC1)c1ccccc1", "active"],
  ["CC1(C)CC(N=c2cc(-c3ccccc3)oc3ccc(Cl)cc23)CC(C)(C)N1", "inactive"],
  ["S=c1[nH]cnc2scc(-c3ccc(Br)cc3)c12", "inactive"],
  ["COc1ccc2c(c1)[nH]c1c(=O)n(/N=C/c3ccc(OC)c(CN4CCCC4)c3)cnc12", "inactive"],
  ["C[C@@H](NC(=O)OC(C)(C)C)c1nnc(S(=O)(=O)Cc2ccccc2)o1", "inactive"],
  ["Cc1cccc(N(CC(=O)NC2CCCC2)C(=O)c2csnn2)c1C", "inactive"],
  ["COc1ccc(C(=O)N=C2CCC(C#N)=C3c4cc(OC)c(OC)cc4CCN23)cc1", "inactive"],
  ["CCc1ccc(NC(=O)C(=O)NNC(=O)COc2cccc(OC)c2)cc1", "active"],
  ["CCN(c1ccc(NS(=O)(=O)c2cc(Cl)ccc2Cl)cc1)C(C)C", "inactive"],
  ["O=C1NN(c2ccccc2)C(=O)/C1=C\\c1cccc(OC(=O)c2cccs2)c1", "active"],
  ["Cc1cc(-c2csc3nc[nH]c(=S)c23)cc(C)c1C", "active"],
  ["N#C/C=C1/NC(=O)c2ccccc2S1", "active"],
  ["O=C(O)CCSc1ncnc2sc(-c3ccccc3)cc12", "active"],
  ["COc1ccc(-c2nc(=S)c3c([nH]2)Oc2ccc(C)cc2C3)cc1O", "inactive"],
  ["O=C(Nc1ccc(Cl)cc1C(F)(F)F)C(Sc1cccc[n+]1[O-])c1ccccc1 (stereo unspecified)", "inactive"],
  ["COc1ccc(-n2c(C)cc(C(=O)CCl)c2C)cc1", "inactive"],
  ["Cc1ccc(C(=O)C2=C(O)C(=O)N(CCCN3CCOCC3)C23C(=O)N(C)c2ccccc23)o1 (stereo unspecified)", "inactive"],
  ["Cc1ccnc(NS(=O)(=O)c2ccc(NC(=O)C34CC5CC(CC(C5)C3)C4)cc2)n1", "inactive"],
  ["CCCCOC(=O)c1ccc(NC(=S)NC(=O)c2ccco2)cc1", "inactive"],
  ["CCOC(=O)N1CCN(C(=S)NC(=O)c2ccc(F)c(F)c2)CC1", "inactive"],
  ["Cc1ccc(C(C(=O)NC2CCCCC2)N(Cc2cccnc2)C(=O)C2COc3ccccc3O2)o1 (stereo unspecified)", "inactive"],
  ["O=C(NCc1ccccn1)C1CCN(Cc2cccc(OCc3ccccc3)c2)CC1", "inactive"],
  ["Cc1cc(C=NCCO)c(C)n1-c1cc(Cl)ccc1Cl", "inactive"],
  ["C=CS(=O)(=O)c1sc(Cl)c(N2CCOCC2)c1[N+](=O)[O-]", "inactive"],
  ["C=CCCCN(Cc1ccccc1)S(=O)(=O)c1ccccc1Br", "inactive"],
  ["O=C(NC(=S)NC1CCCCC1)c1ccc(Cl)cc1", "active"],
  ["CCC1=NN(C(=O)c2ccc(Br)cc2)C(O)(c2ccccc2)C1 (stereo unspecified)", "inactive"],
  ["CCOC(=O)c1ccc(-n2c(CN3CCOCC3)nc3ccc([N+](=O)[O-])cc3c2=O)cc1", "inactive"],
  ["O=C(N/N=C/c1ccc(-c2ccccc2)o1)c1ccccc1O", "inactive"],
  ["CCn1ncc(CN2CCC(C(=O)Nc3cccc(-c4cccc(F)c4)c3)CC2)c1C", "inactive"],
  ["Cc1ccc(-c2csc3nc[nH]c(=S)c23)cc1C", "active"]
]}
